Listing of entries alongside the reported inhibition.
System: Liver microsomes
assay-text: Antioxidant activity in rat liver microsomes assessed as inhibition of ethoxyresorufin O-deethylase activity at 1000 uM
Type: functional
assay-conditions: Microsome

Cn1c(Cn2c(-c3ccc(Cl)cc3)nc3ccccc32)n[nH]c1=S : 81%
CNc1nnc(Cn2c(-c3ccc(OC)c(OC)c3)nc3cc(Cl)c(Cl)cc32)s1 : 66%
Cn1c(=O)c2c(ncn2C)n(C)c1=O : 80%

Simply: CNC(=S)NNC(=O)Cn1c(-c2ccc(OC)c(OC)c2)nc2cc(Cl)c(Cl)cc21 , Liver microsomes, inhibition = 70%
